Quick reference: efficacy (kill in %) of the listed items.
test system: Ctenocephalides felis; experiment: Ctenocephalides felis oral test; type: in vivo; settings: application rate 100 ppm in citrated cattle blood; after 2 days
endpoint label: efficacy (kill in %)

[[record]]
compound = "Cn1nc(C(F)(F)C(F)(F)F)c(C(F)(F)F)c1-n1cc(-c2cccc(NC(=O)c3cc(Cl)nc(Cl)c3)c2)cn1 [Example 1-011]"
target = "Ctenocephalides felis"
test_result = "100%"

[[record]]
compound = "Cn1cc(C(=O)Nc2cccc(-c3cnn(-c4c(C(F)(F)F)c(C(F)(F)C(F)(F)F)nn4C)c3)c2)cn1 [Example 1-019]"
target = "Ctenocephalides felis"
test_result = "100%"

[[record]]
compound = "Cn1nc(C(F)(F)C(F)(F)F)c(C(F)(F)F)c1-n1cc(-c2ccc(F)c(NC(=O)c3ccc(Cl)nc3)c2)cn1 [Example 1-099]"
target = "Ctenocephalides felis"
test_result = "100%"

[[record]]
compound = "Cn1nc(C(F)(F)C(F)(F)F)c(C(F)(F)F)c1-n1cc(-c2ccc(F)c(NC(=O)C3CC3)c2)cn1 [Example 1-055]"
target = "Ctenocephalides felis"
test_result = "100%"

[[record]]
compound = "Cn1nc(C(F)(F)C(F)(F)F)c(C(F)(F)F)c1-n1cc(-c2ccc(F)c(NC(=O)c3ccccc3F)c2)cn1 [Example 1-071]"
target = "Ctenocephalides felis"
test_result = "90%"

[[record]]
compound = "Cn1nc(C(F)(F)C(F)(F)F)c(C(F)(F)F)c1-n1cc(-c2cnc(Cl)c(NC(=O)c3ccncc3)c2)cn1 [Example 2-006]"
target = "Ctenocephalides felis"
test_result = "100%"

[[record]]
compound = "C[C@@H](F)C(=O)Nc1cc(-c2cnn(-c3c(C(F)(F)F)c(C(F)(F)C(F)(F)F)nn3C)c2)ccc1F [Example 1-066]"
target = "Ctenocephalides felis"
test_result = "100%"

[[record]]
compound = "Cn1nc(C(F)(F)C(F)(F)F)c(C(F)(F)F)c1-n1cc(-c2cnc(Cl)c(NC(=O)c3ccc(F)cc3)c2)cn1 [Example 2-001]"
target = "Ctenocephalides felis"
test_result = "100%"

[[record]]
compound = "Cn1nc(C(F)(F)C(F)(F)F)c(C(F)(F)F)c1-n1cc(-c2ccc(F)c(NC(=O)C3(Cl)CC3)c2)cn1 [Example 1-032]"
target = "Ctenocephalides felis"
test_result = "100%"

[[record]]
compound = "Cc1ccc(C(=O)Nc2cc(-c3cnn(-c4c(C(F)(F)F)c(C(F)(F)C(F)(F)F)nn4C)c3)ccc2F)s1 [Example 1-069]"
target = "Ctenocephalides felis"
test_result = "100%"

[[record]]
compound = "Cn1nc(C(F)(F)C(F)(F)F)c(C(F)(F)F)c1-n1cc(-c2cccc(NC(=O)c3ccccc3)c2)cn1 [Example 1-010]"
target = "Ctenocephalides felis"
test_result = "100%"

[[record]]
compound = "COCC(=O)Nc1cc(-c2cnn(-c3c(C(F)(F)F)c(C(F)(F)C(F)(F)F)nn3C)c2)ccc1F [Example 1-048]"
target = "Ctenocephalides felis"
test_result = "95%"

[[record]]
compound = "Cc1cccc(C(=O)Nc2cc(-c3cnn(-c4c(C(F)(F)F)c(C(F)(F)C(F)(F)F)nn4C)c3)ccc2F)c1C [Example 1-080]"
target = "Ctenocephalides felis"
test_result = "95%"

[[record]]
compound = "CN(C)C(=O)C(=O)Nc1cc(-c2cnn(-c3c(C(F)(F)F)c(C(F)(F)C(F)(F)F)nn3C)c2)ccc1F [Example 1-127]"
target = "Ctenocephalides felis"
test_result = "100%"

